inhibition of growth at 300 ppm reference
# Tested on: Rhizoctonia solani
# assay_protocol: Rhizoctonia solani (rice sheath blight/potato black scurf) in vitro test, radial growth on potato dextrose agar
# Format: cell-based
# condition: 168 h, 300 ppm in potato dextrose agar, 25° C., 60% relative humidity, seven days, read-out: control compared to the untreated check (radial growth)

Below, each entry is followed by its recorded inhibition of growth at 300 ppm result.
                                   molecule         target_desc  result
0  CCN(C)C=Nc1cc(OC)cc(Cc2cc(C)cc(F)c2)c1C [Compound 292]  Rhizoctonia solani   ≥ 70%
1  CCN(C)C=Nc1cc(OC)cc(Cc2cc(F)ccc2Cl)c1C [Compound 293]  Rhizoctonia solani   ≥ 70%
2  CCN(C)C=Nc1cc(F)cc(Cc2ccccc2Br)c1C [Compound 151]  Rhizoctonia solani   ≥ 70%
3  CCN(C)C=Nc1cc(C)cc(Nc2ccccc2OC(F)F)c1Cl [Compound 177]  Rhizoctonia solani   ≥ 70%
4  CCN(C)C=Nc1cc(F)cc(Nc2cccc(Cl)c2)c1C [Compound 37]  Rhizoctonia solani   ≥ 70%
5  CCN(C)C=Nc1cc(F)cc(Nc2cc(F)cc(Cl)c2)c1C [Compound 96]  Rhizoctonia solani   ≥ 70%
6  CCN(C)C=Nc1cc(F)cc(Cc2ccc(C)cc2)c1C [Compound 171]  Rhizoctonia solani   ≥ 70%
7  CCN(C)C=Nc1cc(F)cc(Cc2cc(F)ccc2C)c1C [Compound 231]  Rhizoctonia solani   ≥ 70%

Query :: Record CCN(C)C=Nc1cc(OC)cc(Cc2cccc(OC(F)(F)F)c2)c1C [Compound 305] : what is its inhibition of growth at 300 ppm with Rhizoctonia solani?
Result :: ≥ 70%

Query :: Record CCN(C)C=Nc1cc(C)cc(Cc2ccc(F)c(C)c2)c1Cl [Compound 68] : what is its inhibition of growth at 300 ppm with Rhizoctonia solani?
Result :: ≥ 70%

Query :: Record CCN(C)C=Nc1cc(F)cc(N(C)c2cc(Cl)ccc2C)c1C [Compound 98] : what is its inhibition of growth at 300 ppm with Rhizoctonia solani?
Result :: ≥ 70%

Query :: Record CCN(C)C=Nc1cc(Cl)cc(Cc2ccccc2C#N)c1C [Compound 104] : what is its inhibition of growth at 300 ppm with Rhizoctonia solani?
Result :: ≥ 70%

Query :: Record CCN(C)C=Nc1cc(OC)cc(Cc2ccccc2Cl)c1C [Compound 265] : what is its inhibition of growth at 300 ppm with Rhizoctonia solani?
Result :: ≥ 70%

Query :: Record CCN(C)C=Nc1cc(OC)cc(Cc2cccc(C(F)(F)F)c2)c1C [Compound 296] : what is its inhibition of growth at 300 ppm with Rhizoctonia solani?
Result :: ≥ 70%

Query :: Record CCN(C)C=Nc1cc(Cl)cc(Cc2cc(C)c(F)c(C)c2)c1C [Compound 87] : what is its inhibition of growth at 300 ppm with Rhizoctonia solani?
Result :: ≥ 70%

Query :: Record CCN(C)C=Nc1cc(C)cc(Cc2ccc(Cl)cc2)c1C [Compound 224] : what is its inhibition of growth at 300 ppm with Rhizoctonia solani?
Result :: ≥ 70%

----------
# System: Pyricularia oryzae
# assay_protocol: microbe, parasite or virus in culture
# Format: cell-based
# condition: 168 h, read-out: control compared to the untreated check (radial growth)
readout_name: inhibition of growth at 300 ppm

Below, each entry is followed by its recorded inhibition of growth at 300 ppm result.
>>> df
                               smiles_entry         target_desc                     readout_name  result
0    CCN(C)C=Nc1cc(C)cc(Nc2ccc3ncsc3c2)c1Cl  Pyricularia oryzae  inhibition of growth at 300 ppm   ≥ 70%
1     CCN(C)C=Nc1cc(Cl)cc(Nc2cccc(Cl)c2)c1C  Pyricularia oryzae  inhibition of growth at 300 ppm   ≥ 70%
2  CCN(C)C=Nc1cc(C)cc(Cc2ccccc2OC(F)(F)F)c1Cl  Pyricularia oryzae  inhibition of growth at 300 ppm   ≥ 70%
3       CCN(C)C=Nc1cc(C)cc(Cc2cccc(F)c2)c1C  Pyricularia oryzae  inhibition of growth at 300 ppm   ≥ 70%
4  CCN(C)C=Nc1cc(C)cc(N(C)c2ccc(OC)cc2)c1Cl  Pyricularia oryzae  inhibition of growth at 300 ppm   ≥ 70%
5  CCN(C)C=Nc1cc(Cl)cc(N(C)c2cccc(C(F)(F)F)n2)c1C  Pyricularia oryzae  inhibition of growth at 300 ppm   ≥ 70%

Query :: Could you tell me which inhibition of growth at 300 ppm is on file for CCN(C)C=Nc1cc(C)cc(N(C)c2ncccc2C)c1Cl ?
Result :: ≥ 70%

Query :: Could you tell me which inhibition of growth at 300 ppm is on file for CCN(C)C=Nc1cc(C)cc(N(C)c2ccc(F)c(OC)c2)c1Cl ?
Result :: ≥ 70%

Query :: Could you tell me which inhibition of growth at 300 ppm is on file for CCN(C)C=Nc1cc(C)cc(Nc2cc(C)cc(F)c2)c1Cl ?
Result :: ≥ 70%
